Listed here are binders together with their documented IC50 (µg/mL), pseudovirus neutralization.
Biological target: HIV-1 Env of isolate 93TH305 (subtype B) (HIV-1)
Test: cell-based or functional assay
Just the number please, in µg/mL, no unit attached.

Here is how some binders turned out for IC50 (µg/mL), pseudovirus neutralization.
[
  {
    "Binder": "PGT-136 (antibody, V domains shown) VH: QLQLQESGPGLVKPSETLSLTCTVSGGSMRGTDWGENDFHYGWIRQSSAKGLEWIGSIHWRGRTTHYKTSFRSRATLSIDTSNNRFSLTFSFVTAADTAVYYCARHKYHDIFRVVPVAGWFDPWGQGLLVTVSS VL: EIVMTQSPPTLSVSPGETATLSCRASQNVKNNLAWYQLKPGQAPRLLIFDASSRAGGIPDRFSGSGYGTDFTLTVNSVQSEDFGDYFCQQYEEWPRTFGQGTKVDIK",
    "Outcome measure": "IC50 (µg/mL), pseudovirus neutralization",
    "Units of measure": "µg/mL",
    "Test value": 20.2
  },
  {
    "Binder": "PGT-131 (antibody, V domains shown) VH: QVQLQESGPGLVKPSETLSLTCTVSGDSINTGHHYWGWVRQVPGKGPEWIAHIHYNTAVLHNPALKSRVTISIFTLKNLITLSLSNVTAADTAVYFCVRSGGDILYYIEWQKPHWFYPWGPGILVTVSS VL: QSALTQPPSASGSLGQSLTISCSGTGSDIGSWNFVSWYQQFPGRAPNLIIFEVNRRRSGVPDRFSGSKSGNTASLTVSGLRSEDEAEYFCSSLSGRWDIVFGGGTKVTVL",
    "Outcome measure": "IC50 (µg/mL), pseudovirus neutralization",
    "Units of measure": "µg/mL",
    "Test value": 0.016
  }
]

IC50 (µg/mL), pseudovirus neutralization reported for this binder PGT-130 (antibody, V domains shown) VH: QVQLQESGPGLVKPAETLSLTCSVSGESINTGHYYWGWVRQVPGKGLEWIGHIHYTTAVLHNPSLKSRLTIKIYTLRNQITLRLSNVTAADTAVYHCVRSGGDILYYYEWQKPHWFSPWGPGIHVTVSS VL: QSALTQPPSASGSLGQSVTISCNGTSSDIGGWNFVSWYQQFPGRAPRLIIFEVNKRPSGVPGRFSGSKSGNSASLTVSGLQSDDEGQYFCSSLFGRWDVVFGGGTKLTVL : 0.021
